- Tested on: Proteus vulgaris 3027
- Test: MIC, plate method, standard strains
- Type: cell-based
- Assay setup: Table 3, standard strain; unit assumed
Readout label: MIC Proteus vulgaris 3027

// below: answered molecules
input: # MIC Proteus vulgaris 3027 lookup, item "CCCCN1CCN(C(=O)N[C@@H](C(=O)N[C@@H]2C(=O)N3[C@@H]2SC(C)(C)[C@@H]3C(=O)O)c2ccccc2)C(=O)C1"
output: < 1.57 µg/mL

input: # repeat for C=CCN1CCN(C(=O)NC(C(=O)NC2C(=O)N3C2SC(C)(C)C3C(=O)O)c2ccccc2)C(=O)C1=O (single isomer, unassigned)
output: < 1.57 µg/mL

input: # repeat for COCOC(=O)C1N2C(=O)C(NC(=O)C(NC(=O)N3CCN(C)C(=O)C3=O)c3ccccc3)C2SC1(C)C (single isomer, unassigned)
output: < 0.79 µg/mL

input: # repeat for "CC1(C)S[C@@H]2[C@H](NC(=O)[C@H](NC(=O)N3CCN(C(=O)c4ccc(Cl)cc4)CC3=O)c3ccccc3)C(=O)N2[C@H]1C(=O)O"
output: 3.13 µg/mL

input: # repeat for CCCCCCCCN1CCN(C(=O)NC(C(=O)NC2C(=O)N3C2SC(C)(C)C3C(=O)OCOC)c2ccccc2)C(=O)C1=O (single isomer, unassigned)
output: < 0.4 µg/mL

Kindly review the next molecule as well.
input: # MIC Proteus vulgaris 3027 lookup, item CCCCCCN1CCN(C(=O)NC(C(=O)NC2C(=O)N3C2SC(C)(C)C3C(=O)O)c2ccccc2)C(=O)C1=O (single isomer, unassigned)
output: 0.4 µg/mL
